Data origin, for the record: PubChem BioAssay (NCI)

Each entry below lists one item and its recorded TGI value.
test system: PC-3 prostate; assay: NCI tumour cell line growth inhibition, 48 h

In the examples that follow, each entry is paired with its recorded TGI.
COC(=N)C1(C#N)NC(c2ccsc2)C(C#N)(C#N)NC1c1ccsc1 (stereo not given) = > 100 µM
COc1cc(N2C(=O)[C@H](Cl)C2c2ccc(SC)cc2)cc(OC)c1OC (stereo not given in full) = > 100 µM
CC(C)C[C@@H](N)[C@@H](O)C(=O)N[C@H](C(=O)N[C@H](C(=O)N[C@@H](CC(=O)O)C(=O)O)C(C)C)C(C)C = > 20 µM
C[C@H]1S[C@@H](c2ccc(Cl)cc2Cl)N(NC(=O)c2ccncc2)C1=O = > 100 µM
C[C@@H]1C[C@@H]([C@H](O)CC2CC(=O)NC(=O)C2)C(=O)[C@@H](C)C1 = 4.51 µM
O=[N+]([O-])c1ccc(-n2nc3ccc4nonc4c3n2)cc1 = > 100 µM
COC1CC(C)(NC(=O)C(F)(F)F)C2OC(c3ccccc3)OCC2O1 (stereo not given) = > 100 µM
COc1ccc(-c2nc3ccccc3s2)cc1OC = > 100 µM
CC(O)c1nc(C#N)c(N)o1 (stereo not given) = > 100 µM

Here is the next item to consider.
[Q] Report TGI for CC(C)(CO[C@H]1C[C@H]2CC[C@@]1(C)C2(C)C)[N+](=O)[O-] tested on PC-3 prostate.
[A] 54.4 µM

###

test system: HS 578T breast; test: NCI tumour cell line growth inhibition, 48 h; in the data active = GI50 below about 0.43 µM; inactive = the rest
Choose the fitting class; nothing outside active, inactive is accepted.

Cn1c(I)c(C#C[Si](C)(C)C)c(=O)n(C(=O)c2ccccc2)c1=O = inactive
CCCCCCCC/C=C/CCCCCCCC1=NC(C)(C)CN1C(C)(C)CO = inactive
CCCCNC(c1ccc(Cl)cc1)C(O)c1ccc(Cl)cc1 (stereo unspecified) = inactive
CCOC(=O)NC(=S)N(CC(=O)c1cc(OC)c(OC)c(OC)c1)c1ccc(Cl)cc1 = inactive
COc1cc(N2C(=O)[C@H](Cl)C2c2ccc(SC)cc2)cc(OC)c1OC (stereo partly specified) = active

[Q] Record lookup: outcome of this test for CCC[CH2][Sn-]([CH2]CCC)([CH2]CCC)[O]C(=O)C(C)C ?
[A] active

[Q] Now consider O=C(Nc1sc2c(c1C(=O)O)CCCC2)c1ccco1 .
[A] inactive

[Q] Now consider O=C(Nc1n[nH]c2cc(-c3cc(F)ccc3F)ccc12)C1CC1 .
[A] inactive

[Q] Now consider CCN(CC)C(=S)SSC(C)C .
[A] inactive

[Q] Now consider Cc1cccc(N2C(=O)/C(=C/C(Cl)=C/c3ccc([N+](=O)[O-])cc3)SC2=S)c1C .
[A] inactive

[Q] Now consider CC(C)(C)C[C@H]1N[C@@H](C(=O)NC2CCC(O)CC2)[C@H](c2cccc(Cl)c2F)[C@@]12C(=O)Nc1cc(Cl)ccc12 (stereo partly specified) .
[A] inactive

###

test system: A498 renal; assay: NCI tumour cell line growth inhibition, 48 h
Each entry below lists one item and its recorded TGI value.

In the examples that follow, each entry is paired with its recorded TGI.
CC1OC(OC2C(O[C@H]3CC[C@@]4(C)C(=CC[C@H]5[C@@H]6C[C@@H]7O[C@]8(CC[C@@H](C)CO8)[C@@H](C)[C@@H]7[C@@]6(C)CC[C@@H]54)C3)OC(CO)C(O)C2OC2OC(CO)C(O)C(O)C2O)C(O)C(O)C1O (some centres not stated) = 3.15 µM
Cc1n[nH]c2ccccc2c1=O = > 100 µM
Cc1nc2c(Br)cc(Br)cc2c(=O)n1-c1ccccc1NC1OC(CO)C(O)C(O)C1O (configuration not stated) = > 100 µM
COc1ccccc1NC(=O)C(=O)C(C(=O)c1ccccc1F)C1OC(=O)c2ccccc21 (configuration not stated) = > 100 µM
Cn1/c(=N\N=C2\C=C3CCCCC3(C)CC2)sc2ccccc21 (configuration not stated) = > 100 µM

[Q] Request the reported TGI associated with COc1cc2c(cc1OC)C(=O)N(c1ccc(OCCN3CCCC3)cc1)C2
[A] > 100 µM

[Q] Now consider CC1=C(C)C(=O)C(C2=CC(=O)c3ccccc3C2=O)=C(C2=CC(=O)c3ccccc3C2=O)C1=O .
[A] 50.8 µM
